Data credit: ChEMBL document CHEMBL1148717

Molecular target: Malate dehydrogenase, cytoplasmic (Sus scrofa)
Sequence (P11708 whole entry): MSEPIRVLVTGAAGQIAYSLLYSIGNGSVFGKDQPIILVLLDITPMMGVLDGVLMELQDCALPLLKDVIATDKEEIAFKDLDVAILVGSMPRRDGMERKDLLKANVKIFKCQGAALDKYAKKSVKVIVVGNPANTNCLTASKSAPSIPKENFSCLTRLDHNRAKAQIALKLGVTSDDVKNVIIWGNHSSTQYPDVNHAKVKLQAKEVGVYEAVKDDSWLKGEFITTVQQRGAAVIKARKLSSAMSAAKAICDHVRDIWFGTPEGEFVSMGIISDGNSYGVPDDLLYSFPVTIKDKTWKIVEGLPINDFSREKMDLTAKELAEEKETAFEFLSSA
Assay: Inhibition of pig cytosolic MDH
Settings: read-out: IC50
METRIC NAME: IC50 (µM)

[[record]]
compound = "N#Cc1cc(CCOc2cc(O)c3c(=O)cc(C(=O)O)oc3c2)ccc1NC(=O)C(=O)O"
value_operator = "="
recorded_result = 13.6

[[record]]
compound = "Cc1cc2c(C(C)C)c(O)c(O)c(C=O)c2c(O)c1-c1c(C)cc2c(C(C)C)c(O)c(O)c(C=O)c2c1O [GOSSYPOL]"
value_operator = "="
recorded_result = 5.8

[[record]]
compound = "NC(=O)C(=O)O [OXAMATE]"
value_operator = ">"
recorded_result = 2000

[[record]]
compound = "COc1ccc(CNC(=O)c2cc(=O)c3c(O)cc(OCCc4ccc(NC(=O)C(=O)O)cc4)cc3o2)cc1"
value_operator = "="
recorded_result = 4.88

[[record]]
compound = "COc1cc(COc2cc(O)c3c(=O)cc(C(=O)O)oc3c2)ccc1NC(=O)C(=O)O"
value_operator = ">"
recorded_result = 232

[[record]]
compound = "COc1ccc(CNC(=O)c2cc(=O)c3c(O)cc(OCCc4ccc(NC(=O)C(=O)O)c(C#N)c4)cc3o2)cc1"
value_operator = "="
recorded_result = 10.9

[[record]]
compound = "COc1ccc(CNC(=O)c2cc(=O)c3c(O)cc(OCCc4ccc(NC(=O)C(=O)O)c(OC)c4)cc3o2)cc1"
value_operator = "="
recorded_result = 6.31


---

Molecular target: Lactate dehydrogenase (Plasmodium falciparum, UniProt Q0PJ46)
Sequence (Q0PJ46 whole entry): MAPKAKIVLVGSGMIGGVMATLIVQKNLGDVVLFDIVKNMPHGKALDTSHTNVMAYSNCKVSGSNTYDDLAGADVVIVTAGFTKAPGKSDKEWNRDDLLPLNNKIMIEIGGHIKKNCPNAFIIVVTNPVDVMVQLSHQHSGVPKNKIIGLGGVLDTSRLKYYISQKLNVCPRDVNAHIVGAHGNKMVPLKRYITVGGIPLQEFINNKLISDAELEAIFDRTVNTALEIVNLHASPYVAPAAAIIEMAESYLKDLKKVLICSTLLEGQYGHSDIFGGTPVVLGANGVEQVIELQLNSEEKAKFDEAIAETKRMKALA
Test: Inhibition of Plasmodium falciparum LDH
Settings: read-out: IC50
Just a reminder that ties go to N: only IC50 strictly below 8 µM counts as Y.

[[record]]
compound = "COc1ccc(CNC(=O)c2cc(=O)c3c(O)cc(OCCc4ccc(NC(=O)C(=O)O)cc4)cc3o2)cc1"
answer_label = "Y"

[[record]]
compound = "COc1ccc(CNC(=O)c2cc(=O)c3c(O)cc(OCCc4ccc(NC(=O)C(=O)O)c(OC)c4)cc3o2)cc1"
answer_label = "Y"

[[record]]
compound = "COc1cc(CCOc2cc(O)c3c(=O)cc(C(=O)O)oc3c2)ccc1NC(=O)C(=O)O"
answer_label = "N"

[[record]]
compound = "NC(=O)C(=O)O [OXAMATE]"
answer_label = "N"

[[record]]
compound = "O=C(O)C(=O)Nc1ccc(CCOc2cc(O)c3c(=O)cc(C(=O)O)oc3c2)cc1"
answer_label = "N"

[[record]]
compound = "Cc1cc2c(C(C)C)c(O)c(O)c(C=O)c2c(O)c1-c1c(C)cc2c(C(C)C)c(O)c(O)c(C=O)c2c1O"
answer_label = "Y"

[[record]]
compound = "COc1ccc(CNC(=O)c2cc(=O)c3c(O)cc(OCCc4ccc(NC(=O)C(=O)O)c(C#N)c4)cc3o2)cc1"
answer_label = "N"

[[record]]
compound = "COc1cc(COc2cc(O)c3c(=O)cc(C(=O)O)oc3c2)ccc1NC(=O)C(=O)O"
answer_label = "N"


---

pIC50: −log10 of the molar value.
Reported pIC50 for target or system UniProt:P00346, by entry.
Sequence (P00346 whole entry): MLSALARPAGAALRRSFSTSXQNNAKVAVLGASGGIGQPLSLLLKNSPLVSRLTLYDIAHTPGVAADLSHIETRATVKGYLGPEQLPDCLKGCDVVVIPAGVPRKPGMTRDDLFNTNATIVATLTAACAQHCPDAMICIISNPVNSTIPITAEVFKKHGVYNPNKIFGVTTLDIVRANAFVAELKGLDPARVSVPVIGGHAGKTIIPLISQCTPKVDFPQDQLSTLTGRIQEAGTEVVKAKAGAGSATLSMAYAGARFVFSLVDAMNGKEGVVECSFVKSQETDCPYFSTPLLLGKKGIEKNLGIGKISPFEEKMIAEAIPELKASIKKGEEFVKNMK
METRIC NAME: pIC50

[[record]]
molecule = "Cc1cc2c(C(C)C)c(O)c(O)c(C=O)c2c(O)c1-c1c(C)cc2c(C(C)C)c(O)c(O)c(C=O)c2c1O"
target_under_test = "UniProt:P00346"
metric_name = "pIC50"
value_operator = "="
recorded_result = 5.55

[[record]]
molecule = "COc1cc(COc2cc(O)c3c(=O)cc(C(=O)O)oc3c2)ccc1NC(=O)C(=O)O"
target_under_test = "UniProt:P00346"
metric_name = "pIC50"
value_operator = "="
recorded_result = 4.19

[[record]]
molecule = "NC(=O)C(=O)O [OXAMATE]"
target_under_test = "UniProt:P00346"
metric_name = "pIC50"
value_operator = "<"
recorded_result = 2.70

[[record]]
molecule = "COc1ccc(CNC(=O)c2cc(=O)c3c(O)cc(OCCc4ccc(NC(=O)C(=O)O)c(OC)c4)cc3o2)cc1"
target_under_test = "UniProt:P00346"
metric_name = "pIC50"
value_operator = "="
recorded_result = 6.41

[[record]]
molecule = "COc1cc(CCOc2cc(O)c3c(=O)cc(C(=O)O)oc3c2)ccc1NC(=O)C(=O)O"
target_under_test = "UniProt:P00346"
metric_name = "pIC50"
value_operator = "<"
recorded_result = 3.65

[[record]]
molecule = "COc1ccc(CNC(=O)c2cc(=O)c3c(O)cc(OCCc4ccc(NC(=O)C(=O)O)c(C#N)c4)cc3o2)cc1"
target_under_test = "UniProt:P00346"
metric_name = "pIC50"
value_operator = "="
recorded_result = 5.23


---

Target: Malate dehydrogenase (Plasmodium falciparum)
Sequence (Q6VVP7 whole entry): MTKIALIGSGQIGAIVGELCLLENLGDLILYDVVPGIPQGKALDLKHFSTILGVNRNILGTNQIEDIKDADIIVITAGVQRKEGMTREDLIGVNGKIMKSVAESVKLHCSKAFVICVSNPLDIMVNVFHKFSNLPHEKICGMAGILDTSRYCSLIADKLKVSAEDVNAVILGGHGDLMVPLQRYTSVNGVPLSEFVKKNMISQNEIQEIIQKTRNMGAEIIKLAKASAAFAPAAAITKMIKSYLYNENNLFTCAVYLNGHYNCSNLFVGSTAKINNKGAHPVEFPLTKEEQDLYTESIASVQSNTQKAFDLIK
Assay: Inhibition of Plasmodium falciparum MDH
Details: read-out: IC50
pIC50: −log10 of the molar value.
pIC50 for assorted compounds
METRIC NAME: pIC50

[[record]]
compound = "COc1ccc(CNC(=O)c2cc(=O)c3c(O)cc(OCCc4ccc(NC(=O)C(=O)O)cc4)cc3o2)cc1"
metric_name = "pIC50"
value_operator = "="
recorded_result = 5.17

[[record]]
compound = "NC(=O)C(=O)O [OXAMATE]"
metric_name = "pIC50"
value_operator = "<"
recorded_result = 2.70

[[record]]
compound = "Cc1cc2c(C(C)C)c(O)c(O)c(C=O)c2c(O)c1-c1c(C)cc2c(C(C)C)c(O)c(O)c(C=O)c2c1O"
metric_name = "pIC50"
value_operator = "="
recorded_result = 5.69

[[record]]
compound = "O=C(O)C(=O)Nc1ccc(CCOc2cc(O)c3c(=O)cc(C(=O)O)oc3c2)cc1"
metric_name = "pIC50"
value_operator = "<"
recorded_result = 3.62

[[record]]
compound = "COc1ccc(CNC(=O)c2cc(=O)c3c(O)cc(OCCc4ccc(NC(=O)C(=O)O)c(OC)c4)cc3o2)cc1"
metric_name = "pIC50"
value_operator = "="
recorded_result = 5.58

[[record]]
compound = "COc1ccc(CNC(=O)c2cc(=O)c3c(O)cc(OCCc4ccc(NC(=O)C(=O)O)c(C#N)c4)cc3o2)cc1"
metric_name = "pIC50"
value_operator = "="
recorded_result = 4.06

[[record]]
compound = "COc1cc(CCOc2cc(O)c3c(=O)cc(C(=O)O)oc3c2)ccc1NC(=O)C(=O)O"
metric_name = "pIC50"
value_operator = "<"
recorded_result = 3.65

[[record]]
compound = "COc1cc(COc2cc(O)c3c(=O)cc(C(=O)O)oc3c2)ccc1NC(=O)C(=O)O"
metric_name = "pIC50"
value_operator = "="
recorded_result = 4.32

